Just for reference, paper PMC5061733 is where these values come from.

target: SpyB (synthetic SpyB peptide); construct: chemically synthesized SpyB peptide (GenScript); SpyB is 35 residues; no tag mentioned; experiment: tryptophan fluorescence quenching; assay type: binding, Streptococcus pyogenes; conditions: 5 μM SpyB, 20 mM HEPES, 100 mM NaCl, 1 mM DTT, pH 7.5, 20°C; read-out: Hemin, KD
pKd: −log10 of the molar value.
EXPERIMENTAL_ENDPOINT: pKd

* C=CC1=C(C)C2=Cc3c(C=C)c(C)c4[n]3[Fe]([Cl])[n]3c(c(C)c(CCC(=O)O)c3=CC3=NC(=C4)C(C)=C3CCC(=O)O)=CC1=N2 [hemin] | 5.59

---

target: SpyB (synthetic SpyB peptide); construct: chemically synthesized SpyB peptide (GenScript); SpyB is 35 residues; no tag mentioned; test: tryptophan fluorescence quenching; format: binding, Streptococcus pyogenes; details: 5 μM SpyB, 20 mM HEPES, 100 mM NaCl, 1 mM DTT, pH 7.5, 20°C; read-out: Protoporphyrin IX, KD
pKd: −log10 of the molar value.
EXPERIMENTAL_ENDPOINT: pKd

- C=CC1=C(C)c2cc3[nH]c(cc4nc(cc5[nH]c(cc1n2)c(C)c5CCC(=O)O)C(CCC(=O)O)=C4C)c(C)c3C=C: 5.31
